Target: T1, recombinant laminin 411 (human, UniProt P07942 22-1786; P11047 34-1609, limits assumed)
T1 construct: also called LAMA4 in complex with its gamma1 and beta1 chains
T1 sequence (chain, as listed by the source limits assumed, chain 1 of 3): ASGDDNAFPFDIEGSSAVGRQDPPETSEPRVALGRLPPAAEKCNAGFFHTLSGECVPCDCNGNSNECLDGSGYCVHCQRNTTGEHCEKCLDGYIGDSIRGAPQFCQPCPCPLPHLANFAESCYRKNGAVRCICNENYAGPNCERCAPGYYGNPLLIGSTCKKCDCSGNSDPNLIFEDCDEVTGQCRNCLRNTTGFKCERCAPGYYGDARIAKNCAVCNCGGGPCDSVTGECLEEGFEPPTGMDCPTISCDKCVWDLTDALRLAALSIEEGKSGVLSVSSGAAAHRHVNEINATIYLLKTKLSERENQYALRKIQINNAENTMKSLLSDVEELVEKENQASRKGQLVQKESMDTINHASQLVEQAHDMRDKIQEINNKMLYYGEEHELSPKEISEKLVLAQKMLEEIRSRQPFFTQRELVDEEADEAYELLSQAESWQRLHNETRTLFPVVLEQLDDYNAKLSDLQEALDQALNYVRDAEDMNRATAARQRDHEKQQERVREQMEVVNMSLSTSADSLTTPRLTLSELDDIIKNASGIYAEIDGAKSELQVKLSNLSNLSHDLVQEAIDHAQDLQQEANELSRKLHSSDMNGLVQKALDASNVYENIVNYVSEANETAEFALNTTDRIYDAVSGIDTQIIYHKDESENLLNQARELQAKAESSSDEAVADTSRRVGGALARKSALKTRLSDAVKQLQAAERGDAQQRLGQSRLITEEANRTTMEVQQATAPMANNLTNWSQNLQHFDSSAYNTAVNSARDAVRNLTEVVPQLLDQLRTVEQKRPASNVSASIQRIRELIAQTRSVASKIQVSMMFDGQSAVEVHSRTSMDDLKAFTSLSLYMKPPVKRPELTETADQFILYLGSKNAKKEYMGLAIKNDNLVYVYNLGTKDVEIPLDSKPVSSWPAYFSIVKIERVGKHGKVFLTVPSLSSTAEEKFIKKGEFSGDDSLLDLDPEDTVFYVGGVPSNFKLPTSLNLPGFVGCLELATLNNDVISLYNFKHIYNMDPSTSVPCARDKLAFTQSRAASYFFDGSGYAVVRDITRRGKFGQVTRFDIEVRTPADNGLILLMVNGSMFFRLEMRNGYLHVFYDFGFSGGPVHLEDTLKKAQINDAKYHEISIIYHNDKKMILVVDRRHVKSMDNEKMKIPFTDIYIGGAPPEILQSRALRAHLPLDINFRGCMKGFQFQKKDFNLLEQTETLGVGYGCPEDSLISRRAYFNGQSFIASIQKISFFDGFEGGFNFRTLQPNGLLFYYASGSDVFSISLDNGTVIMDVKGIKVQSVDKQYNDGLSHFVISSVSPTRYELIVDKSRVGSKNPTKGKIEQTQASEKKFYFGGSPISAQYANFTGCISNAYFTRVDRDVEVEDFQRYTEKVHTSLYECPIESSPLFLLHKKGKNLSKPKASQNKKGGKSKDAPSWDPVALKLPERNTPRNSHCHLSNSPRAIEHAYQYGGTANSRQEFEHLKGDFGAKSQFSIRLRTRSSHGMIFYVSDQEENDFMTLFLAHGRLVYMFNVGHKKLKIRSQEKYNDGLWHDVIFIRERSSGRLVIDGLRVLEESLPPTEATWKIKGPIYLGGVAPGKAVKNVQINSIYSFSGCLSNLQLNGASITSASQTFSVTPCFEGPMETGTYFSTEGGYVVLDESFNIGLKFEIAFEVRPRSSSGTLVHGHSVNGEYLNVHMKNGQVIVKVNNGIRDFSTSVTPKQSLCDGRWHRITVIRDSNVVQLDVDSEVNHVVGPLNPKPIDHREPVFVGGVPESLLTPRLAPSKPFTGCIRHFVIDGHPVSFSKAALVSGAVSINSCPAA
T1 sequence (P07942 22-1786 limits assumed, chain 2 of 3): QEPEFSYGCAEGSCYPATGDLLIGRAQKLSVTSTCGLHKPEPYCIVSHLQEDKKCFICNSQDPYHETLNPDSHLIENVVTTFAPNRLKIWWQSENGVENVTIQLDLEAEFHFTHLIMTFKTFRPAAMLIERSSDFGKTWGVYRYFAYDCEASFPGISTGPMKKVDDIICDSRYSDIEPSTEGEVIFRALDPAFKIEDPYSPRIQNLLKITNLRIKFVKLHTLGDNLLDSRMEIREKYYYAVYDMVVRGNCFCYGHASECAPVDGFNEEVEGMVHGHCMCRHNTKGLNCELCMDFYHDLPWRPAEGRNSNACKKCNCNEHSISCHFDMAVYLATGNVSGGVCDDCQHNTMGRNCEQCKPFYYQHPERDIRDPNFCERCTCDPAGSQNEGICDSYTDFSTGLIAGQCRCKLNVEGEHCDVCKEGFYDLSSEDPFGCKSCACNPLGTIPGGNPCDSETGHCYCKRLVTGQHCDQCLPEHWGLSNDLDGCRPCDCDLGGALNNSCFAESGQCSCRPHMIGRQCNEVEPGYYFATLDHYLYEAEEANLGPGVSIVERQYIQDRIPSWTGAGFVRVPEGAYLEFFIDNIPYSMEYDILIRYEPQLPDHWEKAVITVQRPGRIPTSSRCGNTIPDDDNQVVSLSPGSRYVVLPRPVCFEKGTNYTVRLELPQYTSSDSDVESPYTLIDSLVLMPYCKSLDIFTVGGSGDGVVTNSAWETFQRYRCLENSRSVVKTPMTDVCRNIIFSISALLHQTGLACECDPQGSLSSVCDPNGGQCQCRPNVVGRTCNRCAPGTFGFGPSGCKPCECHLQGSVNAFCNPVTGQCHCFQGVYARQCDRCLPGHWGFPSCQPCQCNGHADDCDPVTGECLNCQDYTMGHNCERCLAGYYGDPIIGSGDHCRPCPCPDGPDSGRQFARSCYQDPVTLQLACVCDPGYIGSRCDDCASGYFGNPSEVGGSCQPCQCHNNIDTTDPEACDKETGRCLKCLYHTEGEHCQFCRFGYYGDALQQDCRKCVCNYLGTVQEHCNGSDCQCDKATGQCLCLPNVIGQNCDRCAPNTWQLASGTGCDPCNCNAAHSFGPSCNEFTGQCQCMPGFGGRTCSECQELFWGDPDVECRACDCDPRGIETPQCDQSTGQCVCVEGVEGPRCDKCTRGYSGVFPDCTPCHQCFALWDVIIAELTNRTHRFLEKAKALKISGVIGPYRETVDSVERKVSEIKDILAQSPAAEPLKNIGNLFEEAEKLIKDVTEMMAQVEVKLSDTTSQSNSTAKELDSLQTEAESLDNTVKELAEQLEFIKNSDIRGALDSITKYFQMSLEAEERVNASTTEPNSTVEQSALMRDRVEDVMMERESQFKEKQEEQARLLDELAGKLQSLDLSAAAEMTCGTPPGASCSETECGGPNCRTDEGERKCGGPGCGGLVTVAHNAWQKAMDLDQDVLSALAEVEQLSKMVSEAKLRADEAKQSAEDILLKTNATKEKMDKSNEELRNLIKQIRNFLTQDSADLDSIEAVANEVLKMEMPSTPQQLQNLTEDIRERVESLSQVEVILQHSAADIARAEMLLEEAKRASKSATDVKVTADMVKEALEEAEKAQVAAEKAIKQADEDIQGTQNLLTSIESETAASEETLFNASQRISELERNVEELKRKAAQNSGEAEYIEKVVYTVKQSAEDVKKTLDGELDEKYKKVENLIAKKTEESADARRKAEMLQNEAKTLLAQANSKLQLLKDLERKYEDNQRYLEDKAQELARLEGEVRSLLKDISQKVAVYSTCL
T1 sequence (P11047 34-1609 limits assumed, chain 3 of 3): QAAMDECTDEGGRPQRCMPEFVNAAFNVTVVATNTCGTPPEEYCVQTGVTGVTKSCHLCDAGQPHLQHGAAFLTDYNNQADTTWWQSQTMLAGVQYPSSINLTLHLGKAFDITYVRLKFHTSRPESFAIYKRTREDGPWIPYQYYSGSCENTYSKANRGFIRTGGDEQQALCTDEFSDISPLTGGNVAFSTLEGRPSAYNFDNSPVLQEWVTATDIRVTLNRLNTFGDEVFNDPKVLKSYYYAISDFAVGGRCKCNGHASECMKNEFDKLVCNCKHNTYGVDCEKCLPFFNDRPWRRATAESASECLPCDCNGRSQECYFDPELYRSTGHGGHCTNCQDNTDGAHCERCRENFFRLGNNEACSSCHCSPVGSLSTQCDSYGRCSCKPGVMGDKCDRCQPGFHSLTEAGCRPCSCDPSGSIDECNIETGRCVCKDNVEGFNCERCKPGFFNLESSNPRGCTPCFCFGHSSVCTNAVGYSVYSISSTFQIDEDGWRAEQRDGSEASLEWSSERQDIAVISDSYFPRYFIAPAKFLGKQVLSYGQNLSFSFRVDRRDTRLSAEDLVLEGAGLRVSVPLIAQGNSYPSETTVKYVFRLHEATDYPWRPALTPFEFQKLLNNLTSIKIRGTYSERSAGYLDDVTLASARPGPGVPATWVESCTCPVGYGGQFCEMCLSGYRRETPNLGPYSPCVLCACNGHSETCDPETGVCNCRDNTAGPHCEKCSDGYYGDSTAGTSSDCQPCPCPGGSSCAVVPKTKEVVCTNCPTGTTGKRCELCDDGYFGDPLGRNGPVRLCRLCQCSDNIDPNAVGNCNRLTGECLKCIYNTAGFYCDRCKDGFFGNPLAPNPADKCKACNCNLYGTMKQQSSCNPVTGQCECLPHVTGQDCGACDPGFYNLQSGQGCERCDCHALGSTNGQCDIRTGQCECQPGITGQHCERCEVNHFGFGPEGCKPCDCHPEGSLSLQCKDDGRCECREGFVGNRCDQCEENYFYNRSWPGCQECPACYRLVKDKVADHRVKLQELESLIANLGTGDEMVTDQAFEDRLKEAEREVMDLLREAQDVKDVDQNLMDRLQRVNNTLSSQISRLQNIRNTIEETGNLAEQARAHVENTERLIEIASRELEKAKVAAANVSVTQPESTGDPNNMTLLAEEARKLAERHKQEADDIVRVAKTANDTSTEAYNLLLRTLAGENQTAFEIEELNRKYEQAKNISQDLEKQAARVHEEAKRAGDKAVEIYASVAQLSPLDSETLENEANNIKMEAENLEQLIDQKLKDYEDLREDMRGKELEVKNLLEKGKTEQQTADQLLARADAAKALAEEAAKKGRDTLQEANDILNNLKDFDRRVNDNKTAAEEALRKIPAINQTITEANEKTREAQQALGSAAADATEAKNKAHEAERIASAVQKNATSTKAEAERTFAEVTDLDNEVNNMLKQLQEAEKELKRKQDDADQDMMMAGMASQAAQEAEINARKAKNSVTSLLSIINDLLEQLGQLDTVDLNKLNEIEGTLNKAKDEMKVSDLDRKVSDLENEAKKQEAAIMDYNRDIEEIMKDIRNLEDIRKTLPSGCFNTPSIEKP
Assay: flow cytometric blocking assay; antibody pre-incubated with 650-labeled laminin 411; blocked partner: human MCAM on CHO cells; MFI

binder: humanized 19C12 antibody H2L6 (antibody, V domains shown, Intact humanized IgG (human Fc); also called VHv2/VLv6) VH: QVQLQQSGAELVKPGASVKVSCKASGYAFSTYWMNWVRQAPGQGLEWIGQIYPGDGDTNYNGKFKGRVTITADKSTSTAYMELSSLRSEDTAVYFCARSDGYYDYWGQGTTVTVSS VL: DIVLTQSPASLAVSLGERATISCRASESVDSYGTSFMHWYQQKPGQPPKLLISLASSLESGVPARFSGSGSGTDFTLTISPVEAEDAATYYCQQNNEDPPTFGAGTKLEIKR
binding result: binds
